- System: Plasmodium falciparum
- protocol.details: GSK_TCMDC: Inhibition of Plasmodium falciparum 3D7 in whole red blood cells, using parasite LDH activity as an index of growth. Test compounds present at 2uM
- Assay type: functional
Each item that follows carries a reported Inhibition.
Kindly provide the numeric value in % only, without the unit symbol.

# count of solved cases: 10
INSERT INTO measurements (compound, unit_of_measurement, recorded_measurement) VALUES
  ('FC(F)(F)c1ccc2[nH]c(-c3ccc(-c4cccc(CN5CCN(c6ccncc6)CC5)c4)cc3)nc2c1.O=C(O)C(F)(F)F', '%', 100),
  ('CCC[C@@H]([C@@H](CC(C)C)C(=O)N[C@H](C(=O)Nc1nccs1)C(C)(C)SCCNC(=O)OCC)N(O)C=O', '%', 95),
  ('O=[N+]([O-])c1ccc(-n2nc(-c3cccnc3)n(Cc3ccco3)c2=S)c(Cl)c1', '%', 95),
  ('CN1CCC(Oc2ccc(CN3CC[C@H](NC(=O)c4cc(F)cc(F)c4)C3)c3ccccc23)C1.O=C(O)C(F)(F)F (stereo partly specified)', '%', 98),
  ('Cc1ccccc1C1CCN(C2CCC(NC(=O)/C=C/c3ccc(Cl)cc3)CC2)CC1 (stereo unspecified)', '%', 99),
  ('Cc1cc(CN2CC[C@H](NC(=O)c3ccc(Cl)c(Cl)c3)C2)ccc1OCCN1CCNCC1.O=C(O)C(F)(F)F', '%', 94),
  ('COc1ccc(-c2ccc(NC(=O)c3ccccc3)cc2)cc1CN1CCCN(C)CC1.O=C(O)C(F)(F)F', '%', 92),
  ('O=C(Cn1c(CCc2cccc(F)c2F)cc(=O)c2ccccc21)N(Cc1ccc(-c2ccc(C(F)(F)F)cc2)cc1)C1CCN(CCO)CC1.O=C(O)C(O)C(O)C(=O)O', '%', 91),
  ('CC1(C)NC(=N)N=C(NOCC=Cc2ccccc2)N1', '%', 98),
  ('Br.CCCc1cc(OCCCOc2ccccc2)ccc1OCCCON1C(=N)N=C(N)NC1(C)C', '%', 94);

Inquiry: Recall and state the measured Inhibition for `Br.Oc1ccc(CCNCCCCCCNCCc2ccc(Cl)c3ccccc23)cc1O` .
Reply text: 99

Inquiry: Recall and state the measured Inhibition for `Cc1ccccc1CN1CCCN(Cc2ccc(C(=O)Nc3ccc(C(C)(C)C)cc3)cc2)CC1.O=C(O)C(F)(F)F` .
Reply text: 89

Inquiry: Recall and state the measured Inhibition for `Cc1ccc(Oc2cnn(C)c(=O)c2Nc2cccc(C(=O)NCCc3ccccn3)c2)c(C)c1` .
Reply text: 94

Inquiry: Recall and state the measured Inhibition for `CS(=O)(=O)NCCCNCc1cccc(-c2csc(-c3nc4ccccc4[nH]3)c2)c1.O=C(O)C(F)(F)F` .
Reply text: 95

Inquiry: Recall and state the measured Inhibition for `COc1ccc(NC(=O)c2ccc3[nH]c(-c4ccc(Cl)cc4)cc3c2)cc1OCCN(C)C` .
Reply text: 100

Inquiry: Recall and state the measured Inhibition for `Cc1[nH]n(-c2cccc(Cl)c2)c(=O)c1-c1ccc(Cl)cc1` .
Reply text: 99

Inquiry: Recall and state the measured Inhibition for CCCN1CCN(CC(O)CNC(=O)Nc2ccc(Cl)cc2)CC1.O=C(O)C(F)(F)F (stereo unspecified) .
Reply text: 100

Inquiry: Recall and state the measured Inhibition for `COc1cccc(C(=O)Nc2ccc(Oc3ccc(Cl)cc3)cc2)c1` .
Reply text: 92

Inquiry: Recall and state the measured Inhibition for `COc1cc2nc(NCc3nc4ccccc4[nH]3)nc(N)c2cc1OC.Cl` .
Reply text: 97

Inquiry: Recall and state the measured Inhibition for `O=c1cc(NCC2(CNCc3cn(Cc4ccccc4)c4ccccc34)CCCCC2)[nH]c2ccccc12` .
Reply text: 100

Inquiry: Recall and state the measured Inhibition for `COc1ccc(Br)cc1/C=C/C(=O)Nc1ccc(C2CCN(C)CC2)cc1.O=CO` .
Reply text: 100

Inquiry: Recall and state the measured Inhibition for `O=C(/C=C/c1ccc(Cl)c(Cl)c1)N1CCC(CN2CCC(c3nc4ccccc4n3CCCO)CC2)CC1` .
Reply text: 96

Inquiry: Recall and state the measured Inhibition for O=C(NCC1CCN(Cc2ccsc2)C1)c1cc(-c2cccc(C(F)(F)F)c2)cs1.O=C(O)C(F)(F)F (stereo unspecified) .
Reply text: 98

* * *

- System: Plasmodium falciparum
- protocol.details: GSK_TCMDC: Inhibition of Plasmodium falciparum 3D7 in whole red blood cells, using parasite LDH activity as an index of growth. Test compounds present at 2uM
- Format: functional
Each item that follows carries a reported Inhibition.
Could you write the number and then its unit?

Inquiry: Name the value of Inhibition reported for `CC(C)=CCc1c(-c2ccc(O)cc2O)oc2c3c(cc(O)c2c1=O)OC(C)(C)C=C3` when tested on Plasmodium falciparum.
Reply text: 89%

* * *

- Tested on: HepG2
- protocol.details: GSK_TCMDC: Percent inhibition of human HepG2 cell line. Test compounds present at 10uM.
- Type: functional
measure.name: Inhibition (%)
Kindly provide the numeric value in % only, without the unit symbol.

# count of solved cases: 5
INSERT INTO results (compound, measured_on, measure_name, recorded_measurement) VALUES
  ('Cl.c1ccc(Oc2cccc(Nc3ccnc4ccccc34)c2)cc1', 'HepG2', 'Inhibition', 48),
  ('O=C(Nc1ccc(Cn2ncc(N3CCCNCC3)c(Cl)c2=O)cc1)Nc1cccc(SC(F)(F)F)c1.O=C(O)C(F)(F)F', 'HepG2', 'Inhibition', 12),
  ('CN(C)c1cc(NN=Cc2cc(Cl)ccc2O)nc(N(C)C)n1', 'HepG2', 'Inhibition', 3),
  ('Cc1cc(N[C@@H](CC(C)C)C(=O)NCCc2ccccc2)nc(NCCc2ccc(F)cc2)n1.O=C(O)C(F)(F)F', 'HepG2', 'Inhibition', 12),
  ('O=C(O)C(F)(F)F.c1ccc(CCNCc2ccc(-c3cccc(CNc4ccc5ncccc5c4)c3)cc2)cc1', 'HepG2', 'Inhibition', 30);

Inquiry: Name the value of Inhibition reported for `N#Cc1ccc(N2CCN(Cc3cccc(-c4ccc(-c5nc6ccccc6[nH]5)cc4)c3)CC2)nc1.O=C(O)C(F)(F)F` when tested on HepG2.
Reply text: 45

Inquiry: Name the value of Inhibition reported for `N#Cc1ccc(N2CCN(Cc3ccc(-c4ccc(-c5nc6ccccc6[nH]5)s4)cc3)CC2)nc1.O=C(O)C(F)(F)F` when tested on HepG2.
Reply text: 17

Inquiry: Name the value of Inhibition reported for Cc1cc(NC(=O)c2coc3cc(F)c(N4CC(C)N(C)C(C)C4)cc23)cnc1-c1ccc(C#N)cc1.Cl (configuration not stated) when tested on HepG2.
Reply text: 35

Inquiry: Name the value of Inhibition reported for Cl.O=C(Nc1ccc(C2=NC3CCCCC3N2)cc1)Nc1ccc(C2=NC3CCCCC3N2)cc1 (configuration not stated) when tested on HepG2.
Reply text: 7

Inquiry: Name the value of Inhibition reported for `COCCCn1c(=N)c(C(=O)NCCc2ccc(OC)cc2)cc2c(=O)n3cccc(C)c3nc21` when tested on HepG2.
Reply text: 18

* * *

- System: HepG2
- protocol.details: GSK_TCMDC: Percent inhibition of human HepG2 cell line. Test compounds present at 10uM.
- Assay type: functional
Quick rule for you: Inhibition at 20% or higher means t, lower means f.

Solved entries (count: 5):
INSERT INTO assay_data (molecule, label_value) VALUES
  ('Br.CC1(C)N=C(N)N=C(N)N1OCCCOc1cccc(C(=O)O)c1', 't'),
  ('CN1CCCN(Cc2ccc(-c3cccc(NC(=O)c4ccc(Cl)cc4)c3)cc2)CC1.O=C(O)C(F)(F)F', 't'),
  ('FC(F)(F)c1cccc(CCNc2nccc(NCc3ccccc3Cl)n2)c1', 't'),
  ('Nc1nc(N)c2c(ccc3c2ncn3Cc2ccccc2)n1', 't'),
  ('COc1ccc2nccc([C@@H](O)CN3CCC(NCCNc4cccc(F)c4)CC3)c2c1.CS(=O)(=O)O', 'f');

Inquiry: Check the entry `COc1ccc(C(=O)CCc2ccc(O)cc2)cc1` : does Inhibition equal or exceed 20%?
Reply text: f

Inquiry: Check the entry `COc1ccc2nc(N(CCCn3ccnc3)C(=O)C=Cc3cccs3)sc2c1.Cl` : does Inhibition equal or exceed 20%?
Reply text: f

* * *

- System: Plasmodium falciparum
- protocol.details: GSK_TCMDC: Inhibition of Plasmodium falciparum 3D7 in whole red blood cells, using parasite LDH activity as an index of growth. Test compounds present at 2uM
- Format: functional
Each item that follows carries a reported Inhibition.
Could you write the number and then its unit?

INSERT INTO assay_data (compound, measured_on, measure_name, recorded_measurement) VALUES
  ('Cc1cccc(C(=O)Nc2ccnc(N3CCC(N(C)Cc4ccccc4)CC3)c2)c1.O=C(O)C(F)(F)F', 'Plasmodium falciparum', 'Inhibition', '93%');

Inquiry: Name the value of Inhibition reported for `Cl.NC1=NC2(CCCC2)N(c2ccc(Cl)cc2)C(N)=N1` when tested on Plasmodium falciparum.
Reply text: 97%

Inquiry: Name the value of Inhibition reported for `COC(=O)Cn1c2ccccc2c2c(N)c(C(=O)OC)c(C)nc21` when tested on Plasmodium falciparum.
Reply text: 93%

Inquiry: Name the value of Inhibition reported for CCOC(=O)C(C(C)=O)C(c1ccccc1)C(C(C)=O)C(=O)OCC (centres undefined) when tested on Plasmodium falciparum.
Reply text: 95%

Inquiry: Name the value of Inhibition reported for `Cc1ccc(C)c(NC(=O)NCCNc2ccnc(Nc3ccc(F)cc3)n2)c1` when tested on Plasmodium falciparum.
Reply text: 97%

Inquiry: Name the value of Inhibition reported for `O=C(Nc1nc2cc(S(=O)(=O)NCCc3cccc(F)c3)ccc2n1CCCn1ccnc1)c1ccc(Cl)cc1.O=C(O)C(F)(F)F` when tested on Plasmodium falciparum.
Reply text: 90%

Inquiry: Name the value of Inhibition reported for `O=C(Nc1ccc2nc3n(c(=O)c2c1)CCCCC3)C(=O)N1CCC(Cc2ccccc2)CC1` when tested on Plasmodium falciparum.
Reply text: 91%

Inquiry: Name the value of Inhibition reported for CC(C)(C)SC1SC(SC(C)(C)C)C(OC(=O)c2ccccc2)C(OC(=O)c2ccccc2)C1OC(=O)c1ccccc1 (centres undefined) when tested on Plasmodium falciparum.
Reply text: 95%

Inquiry: Name the value of Inhibition reported for CC(C)CCNCC(O)Cn1c2ccc(Cl)cc2c2cc(Cl)ccc21 (centres undefined) when tested on Plasmodium falciparum.
Reply text: 99%

Inquiry: Name the value of Inhibition reported for O=C(Nc1cc(C(F)(F)F)cc(C(F)(F)F)c1)NC(CCCN1CCC2(CC1)OCc1ccccc12)c1ccc(Cl)c(Cl)c1 (centres undefined) when tested on Plasmodium falciparum.
Reply text: 94%

Inquiry: Name the value of Inhibition reported for `O=C(/C=C/c1ccc(C(F)(F)F)cc1)NCCCCCN1CCCN(C(=O)Nc2cccc(Cl)c2)CC1` when tested on Plasmodium falciparum.
Reply text: 92%

Inquiry: Name the value of Inhibition reported for `Cc1cccc2nc(-c3ccc(-c4ccc(CNCc5ccc(S(C)(=O)=O)cc5)cc4)cc3)[nH]c12.O=C(O)C(F)(F)F` when tested on Plasmodium falciparum.
Reply text: 93%

Inquiry: Name the value of Inhibition reported for `O=C(Nc1ccc(Cl)cc1)Nc1cccc(CCNCc2ccccc2)c1.O=C(O)C(F)(F)F` when tested on Plasmodium falciparum.
Reply text: 100%

Inquiry: Name the value of Inhibition reported for `Fc1cc(Cl)ccc1Nc1ccnc2cc(-c3ccc(CNCCN4CCOCC4)o3)ccc12` when tested on Plasmodium falciparum.
Reply text: 100%

Inquiry: Name the value of Inhibition reported for `N#Cc1ccc(CN2CCC(Oc3ccc(NC(=O)c4ccccc4)cc3Cl)CC2)cc1.O=C(O)C(F)(F)F` when tested on Plasmodium falciparum.
Reply text: 84%

Inquiry: Name the value of Inhibition reported for `CCc1ccc(NC(=O)c2ccc(CN3CCCN(CC4CCCCC4)CC3)cc2)cc1.O=C(O)C(F)(F)F` when tested on Plasmodium falciparum.
Reply text: 96%

Inquiry: Name the value of Inhibition reported for `Nc1ncc(-c2ccc(Cl)c(Cl)c2)c(N)n1` when tested on Plasmodium falciparum.
Reply text: 94%

Inquiry: Name the value of Inhibition reported for `O=C(Nc1ccc(-c2cccc(-c3nc4cc(C(F)(F)F)ccc4[nH]3)c2)cc1)c1ccncc1` when tested on Plasmodium falciparum.
Reply text: 100%

Inquiry: Name the value of Inhibition reported for `O=C(O)C(F)(F)F.Oc1ccc(CNCC2CCN(CC3CCCCC3)CC2)cc1` when tested on Plasmodium falciparum.
Reply text: 82%
